Molecular target: UniProt:P0DTD1
Experiment: biochemical
Type: biochemical
Conditions: read-out: IC50 No detergent
Below, each entry is listed with its recorded IC50.
Respond numerically; units are µM and should not be typed.

These solved cases illustrate the format of a correct answer.
MOL_SMILES | OBSERVED_VALUE
Cc1cc(-c2ccc(N=Nc3c(S(=O)(=O)[O-])cc4cc(S(=O)(=O)[O-])cc(N)c4c3O)c(C)c2)ccc1N=Nc1c(S(=O)(=O)[O-])cc2cc(S(=O)(=O)[O-])cc(N)c2c1O.[Na+].[Na+].[Na+].[Na+] | 5.6
Cc1nc(N=Nc2cc(S(=O)(=O)[O-])c3cc([N+](=O)[O-])cc(S(=O)(=O)[O-])c3c2)c(COP(=O)([O-])[O-])c(C=O)c1O.[Na+].[Na+].[Na+].[Na+] | 2
COc1cc(C(N)=O)ccc1NC(=O)[C@@H]1N[C@@H](CC(C)(C)C)[C@@]2(C(=O)Nc3cc(Cl)ccc32)[C@H]1c1cccc(Cl)c1F | 2.9
O=C1/C(=C/c2ccc(O)c(Br)c2)CN(Cc2ccccc2)C/C1=C\c1ccc(O)c(Br)c1 | 4.2
C=CCn1c(CSc2ccccc2[N+](=O)[O-])n[nH]c1=S | 7.5

Shifting focus to the compound that follows.
Q: Any idea what IC50 was measured for CC(C)c1ccccc1Cc1cc(C(=O)Nc2ccc(S(=O)(=O)c3ccccc3C(C)(C)C)cc2)c(O)c(O)c1O ?
Result: 2.8

* * *

Target: SARS-CoV-2 nsp13 helicase (Severe acute respiratory syndrome coronavirus 2)
Experiment: biochemical
Type: biochemical
Details: read-out: IC50 0.02% Tween-20 − (absence)
ASSAY_READOUT: pIC50
Hey, just a heads up that pIC50 is the negative log base 10 of the concentration in molar.

MOL_SMILES | OBSERVED_VALUE
O=C(Nc1cccc(C(=O)Nc2ccc(S(=O)(=O)[O-])c3cc(S(=O)(=O)[O-])cc(S(=O)(=O)[O-])c23)c1)Nc1cccc(C(=O)Nc2ccc(S(=O)(=O)[O-])c3cc(S(=O)(=O)[O-])cc(S(=O)(=O)[O-])c23)c1.[Na+].[Na+].[Na+].[Na+].[Na+].[Na+] | 6.17

Q: Any idea what pIC50 was measured for O=C1CC(=O)c2c(Cl)c(Cl)c(Cl)c(Cl)c21 ?
Result: 5.72

* * *

Test system: SARS-CoV-2
Experiment: microbe, parasite or virus in culture
Type: cell-based
Details: read-out: EC50 viral inhibition
ASSAY_READOUT: EC50 (µM)
Respond numerically; units are µM and should not be typed.

Q: Any idea what EC50 was measured for O=c1c(O)c(-c2cc(O)c(O)c(O)c2)oc2cc(O)cc(O)c12 ?
Result: 31.6

* * *

Biological target: SARS-CoV-2 nsp13 helicase (Severe acute respiratory syndrome coronavirus 2, UniProt P0DTD1)
Experiment: biochemical
Format: biochemical
ASSAY_READOUT: IC50 + 0.02% Tween-20

MOLECULE | ASSAY_READOUT | OBSERVED_VALUE
COC(=O)[C@@H]1CC2=CC(=O)CC[C@]2(C)[C@@]23O[C@@H]2C[C@@]2(C)[C@@H](CC[C@@]24CCC(=O)O4)[C@H]13 [Eplerenone] | IC50 + 0.02% Tween-20 | No inhibition
CCCc1c2oc(C(=O)O)cc(=O)c2cc2c(=O)cc(C(=O)O)n(CC)c12 [Nedocromil] | IC50 + 0.02% Tween-20 | No inhibition
CCN(CC)C(=O)c1ccc(C2=CC3(CCNCC3)Oc3cccc(O)c32)cc1 [ADL5859] | IC50 + 0.02% Tween-20 | No inhibition
CN1Cc2sccc2C(c2ccc(O)c(O)c2)C1 (stereo not shown) [SKF 89145] | IC50 + 0.02% Tween-20 | No inhibition
O=C(N[C@H]1CCS[C@H]2CCC[C@@H](C(=O)O)N2C1=O)[C@@H](S)Cc1ccccc1 [Omapatrilat] | IC50 + 0.02% Tween-20 | No inhibition
CS(=O)(=O)c1cccc(C[C@H](NC(=O)c2c(Cl)cc3c(c2Cl)CCN(C(=O)c2ccc4ccoc4c2)C3)C(=O)O)c1 [Lifitegrast] | IC50 + 0.02% Tween-20 | No inhibition
CC1(C)O[C@@H]2C[C@H]3[C@@H]4C[C@H](F)C5=CC(=O)C=C[C@]5(C)[C@@]4(F)[C@@H](O)C[C@]3(C)[C@]2(C(=O)CO)O1 [Fluocinolone Acetonide] | IC50 + 0.02% Tween-20 | No inhibition
O=C1c2c(O)ccc(O)c2C(=O)c2c(NCCNCCO)ccc(NCCNCCO)c21 [Mitoxantrone] | IC50 + 0.02% Tween-20 | Quenching

Q: Any idea what IC50 + 0.02% Tween-20 was measured for NC(Cc1cc(O)c(O)cc1O)C(=O)O (racemic) [6-Hydroxy-DL-DOPA] ?
Result: Quenching

* * *

Target: UniProt:P0DTD1
Experiment: biochemical
Type: biochemical
Conditions: IC50 nsp13
ASSAY_READOUT: pIC50
Hey, just a heads up that pIC50 is the negative log base 10 of the concentration in molar.

COMPOUND | pIC50
Cc1ccc(C(=O)Nc2ccc(S(=O)(=O)O)c3cc(S(=O)(=O)O)cc(S(=O)(=O)O)c23)cc1NC(=O)c1cccc(NC(=O)Nc2cccc(C(=O)Nc3cc(C(=O)Nc4ccc(S(=O)(=O)O)c5cc(S(=O)(=O)O)cc(S(=O)(=O)O)c45)ccc3C)c2)c1 [Suramin] | 5.82

Q: Recorded pIC50 for COc1ccc(-c2ccc3cc(C(=O)O)ccc3c2)cc1C12CC3CC(CC(C3)C1)C2 [Adapalene] with UniProt:P0DTD1, please?
Result: 4.96

* * *

Biological target: SARS-CoV-2 nsp13 helicase (Severe acute respiratory syndrome coronavirus 2)
Assay: biochemical
Assay type: biochemical
Details: RNA (nsp13 substrate), 0.3 mM ATP, 0.02% Tween-20 in RdRp assay buffer
ASSAY_READOUT: IC50 nsp13

MOLECULE | OBSERVED_VALUE
CCCCC/C=C\C/C=C\CCCCCCCC(=O)O | No inhibition
CC1(C)CCC(CN2CCN(c3ccc(C(=O)NS(=O)(=O)c4ccc(NCC5CCOCC5)c([N+](=O)[O-])c4)c(Oc4cnc5[nH]ccc5c4)c3)CC2)=C(c2ccc(Cl)cc2)C1 | No inhibition
Nc1nc2c(c(=O)[nH]1)N(C=O)C(CNc1ccc(C(=O)N[C@@H](CCC(=O)O)C(=O)O)cc1)CN2 (stereo partly drawn) | No inhibition

* * *

Biological target: SARS-CoV-2 nsp13 helicase (Severe acute respiratory syndrome coronavirus 2)
Experiment: biochemical
Assay type: biochemical
Settings: RNA (nsp13 substrate), 0.3 mM ATP, 0.02% Tween-20 in RdRp assay buffer; read-out: IC50 nsp13
Below, each entry is listed with its recorded pIC50.
Hey, just a heads up that pIC50 is the negative log base 10 of the concentration in molar.

These solved cases illustrate the format of a correct answer.
MOL_SMILES | OBSERVED_VALUE
COc1cc(C(=O)O)ccc1NC(=O)[C@@H]1N[C@@H](CC(C)(C)C)[C@](C#N)(c2ccc(Cl)cc2F)[C@H]1c1cccc(Cl)c1F | 4.72
COc1cc(C(=O)NS(=O)(=O)c2ccccc2C)ccc1Cc1cn(C)c2ccc(NC(=O)OC3CCCC3)cc12 | 4.32
CC/C=C\C/C=C\C/C=C\C/C=C\C/C=C\CCCC(=O)O | 4.09
Cc1cc2c(C(C)C)c(O)c(O)c(C=O)c2c(O)c1-c1c(C)cc2c(C(C)C)c(O)c(O)c(C=O)c2c1O | 4.59
Cc1cc(-c2ccc(N=Nc3c(S(=O)(=O)[O-])cc4cc(S(=O)(=O)[O-])cc(N)c4c3O)c(C)c2)ccc1N=Nc1c(S(=O)(=O)[O-])cc2cc(S(=O)(=O)[O-])cc(N)c2c1O.[Na+].[Na+].[Na+].[Na+] | 5.40

Q: Any idea what pIC50 was measured for O=C(Nc1cccc(C(=O)Nc2ccc(S(=O)(=O)[O-])c3cc(S(=O)(=O)[O-])cc(S(=O)(=O)[O-])c23)c1)Nc1cccc(C(=O)Nc2ccc(S(=O)(=O)[O-])c3cc(S(=O)(=O)[O-])cc(S(=O)(=O)[O-])c23)c1.[Na+].[Na+].[Na+].[Na+].[Na+].[Na+] ?
Result: 6.15

Q: Any idea what pIC50 was measured for Cc1cc(-c2ccc(/N=N/c3ccc4c(S(=O)(=O)O)cc(S(=O)(=O)O)c(N)c4c3O)c(C)c2)ccc1/N=N/c1ccc2c(S(=O)(=O)O)cc(S(=O)(=O)O)c(N)c2c1O ?
Result: 5.82

Q: Any idea what pIC50 was measured for CC(C)(Sc1ccc(CCN(CCCCC2CCCCC2)C(=O)NC2CCCCC2)cc1)C(=O)O ?
Result: 4.41

Q: Any idea what pIC50 was measured for CC(C)(C[C@H]1CN(S(=O)(=O)c2cccc(C(F)(F)F)c2)c2cc(-c3cc(F)cc(OC(F)F)c3)ccc2O1)C(=O)O ?
Result: 4.01

Q: Any idea what pIC50 was measured for Cc1nc(N=Nc2cc(S(=O)(=O)[O-])c3cc([N+](=O)[O-])cc(S(=O)(=O)[O-])c3c2)c(COP(=O)([O-])[O-])c(C=O)c1O.[Na+].[Na+].[Na+].[Na+] ?
Result: 5.66
